Assay: Thermodynamic solubility (shake-flask)
Type: physicochemical
Settings: aqueous phosphate buffer, 25 °C, pH 7.4, aqueous buffer, thermodynamic from solid, phosphate buffer pH 7.4, 24 hours
METRIC: log10 solubility at 24 h (log10 of the value in µM)
The base-10 logarithm of solubility at 24 h, taken with solubility at 24 h in µM, is what appears here.

Guide cases for log10 solubility at 24 h, answers given:
C[C@@H]1Cc2c([nH]c3ccccc23)[C@@H](c2cc(OCCNCCCF)ccc2Cl)N1CC(F)(F)CO [Example 44]
2.44
C[C@@H]1Cc2c([nH]c3ccccc23)[C@@H](c2cc(OCCNCCCF)ccc2CO)N1CC(F)(F)F [Example 70]
2.36
C[C@@H]1Cc2c([nH]c3ccccc23)[C@@](C)(c2cccc(OCCNCCCF)c2)N1CC(F)(F)F [Example 75]
-0.05
C[C@@H]1Cc2c([nH]c3ccccc23)[C@@H](c2cc(OCCNCCCF)cc(F)c2F)N1CC(F)(F)F [Example 30]
1.59
C[C@@H]1Cc2c([nH]c3ccccc23)[C@@H](c2ccc(F)c(OCCNCCCF)c2)N1CC(F)(F)F [Example 74]
-0.05
COc1ccc(O[C@H](C)CNCCCF)cc1[C@@H]1c2[nH]c3ccccc3c2C[C@@H](C)N1CC(F)(F)CO [Example 47]
2.69
COc1ccc(OCCNCCCF)cc1[C@@H]1c2[nH]c3ccccc3c2C[C@@H](C)N1CC(F)F [Example 6]
2.19
C[C@@H]1Cc2c([nH]c3ccccc23)[C@@H](c2c(Cl)ccc(OCCNCCCF)c2F)N1CC(F)(F)F [Example 78]
1.41
COc1ccc(OCCNCCCF)c(F)c1[C@@H]1c2[nH]c3ccccc3c2C[C@@H](C)N1CC1(F)CC1 [Example 83]
2.77
Cc1ccc2[nH]c3c(c2c1)C[C@@H](C)N(CC(F)(F)CO)[C@@H]3c1c(F)cnc(OCCNCCCF)c1F [Example 66]
2.64

Q: Let me know recorded log10 solubility at 24 h for C[C@@H]1Cc2c([nH]c3ccccc23)[C@@H](c2cccc(OCCNCCCF)c2)N1CC1(F)COC1 [Example 1] , thanks.
A: 2.48

Q: Determine its reported log10 solubility at 24 h: CCc1ccc(OCCNCCCF)cc1[C@@H]1c2[nH]c3ccccc3c2C[C@@H](C)N1CC(F)(F)F [Example 21]
A: 0.48

====

Target: Estrogen Receptor (ERα) in MCF-7 cells (Homo sapiens (Human), UniProt P03372)
Sequence (P03372 whole entry): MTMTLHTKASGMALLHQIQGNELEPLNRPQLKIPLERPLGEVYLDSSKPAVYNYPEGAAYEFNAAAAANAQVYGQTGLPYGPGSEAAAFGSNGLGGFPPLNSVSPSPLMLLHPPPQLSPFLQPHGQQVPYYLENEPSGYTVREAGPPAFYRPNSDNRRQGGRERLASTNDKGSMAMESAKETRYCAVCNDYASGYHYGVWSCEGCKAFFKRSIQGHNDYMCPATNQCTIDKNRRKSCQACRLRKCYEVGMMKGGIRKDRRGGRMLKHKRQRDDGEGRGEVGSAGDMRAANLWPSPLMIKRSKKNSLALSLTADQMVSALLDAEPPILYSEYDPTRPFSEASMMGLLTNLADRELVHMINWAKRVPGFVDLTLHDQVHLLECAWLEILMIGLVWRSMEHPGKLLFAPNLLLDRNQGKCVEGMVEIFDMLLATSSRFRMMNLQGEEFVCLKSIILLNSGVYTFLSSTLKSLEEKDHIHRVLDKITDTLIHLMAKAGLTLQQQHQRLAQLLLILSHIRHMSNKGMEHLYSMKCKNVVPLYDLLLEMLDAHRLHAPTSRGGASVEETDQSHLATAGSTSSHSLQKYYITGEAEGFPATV
Test: MCF-7 ER down-regulation assay (immuno-fluorescence)
METRIC: pIC50
// pIC50 here means minus log10 of the molar concentration (mol/L)

Below: 3 compounds and their reported pIC50.
C[C@@H]1Cc2c([nH]c3ccccc23)[C@@H](c2nccc(OCCNCCCF)c2F)N1CC(F)(F)CO [Example 97]
9.18
COc1ccc(OCCNCCCF)c(F)c1[C@@H]1c2[nH]c3ccccc3c2C[C@@H](C)N1CC(F)F [Example 82]
10.38
C[C@@H]1Cc2c([nH]c3ccccc23)[C@@H](c2c(F)cnc(OCCNCCCF)c2F)N1CC1(F)CC1 [Example 108]
9.52

Q: Supply reported pIC50 belonging to this compound: COc1ccc(OCCNCCCF)cc1[C@@H]1c2[nH]c3ccccc3c2C[C@@H](C)N1CC1(F)CC1 [Example 52]
A: 9.47
